Attribution: PubChem BioAssay AID463173

Tested on: DeltatarO mutant
measurement-notes: S. aureus survival, RN4220 and DeltatarO strains – OD600, teichoic acid synthesis inhibitors, primary screen (AID 463173)
conditions-used: S. aureus RN4220 wild type/DeltatarO growth, OD600, 18 h, hits give low values, screened at 18.75 µg/mL (by protocol)
The campaign covered roughly 52,000 compounds. About 4,300 (8.3%) were called active. Only a selection was taken, and actives are over-represented in it overall.
Field 'label' (enum: criterion met / criterion not met). Set to criterion met when survival is strictly under 60%; else criterion not met.

Would you please look over these solved cases?
Could you please tell me whether survival recorded for CC(C)(C)C1CCc2onc(C(=O)Nc3sc4c(c3C#N)CCCC4)c2C1 (stereo not given) is less than 60%?
criterion not met

Could you please tell me whether survival recorded for `CCOc1ccc(CN(CCc2ccc3c(c2)OCO3)Cc2cc(OC)c(OC)cc2OC)cc1` is less than 60%?
criterion met

Could you please tell me whether survival recorded for CC(C)(C)C1CCc2onc(C(=O)Nc3sc4c(c3C(N)=O)CCCC4)c2C1 (stereo not given) is less than 60%?
criterion met

Could you please tell me whether survival recorded for `NC(=O)c1c(NC(=O)c2cc(-c3ccc(F)cc3)on2)sc2c1CCCC2` is less than 60%?
criterion not met

Could you please tell me whether survival recorded for `COc1ccc(NC(=O)CCc2c(C)nc3c(c2C)c(=O)n(C)c(=O)n3C)c(OC)c1` is less than 60%?
criterion not met

Could you please tell me whether survival recorded for `CCCc1cnc2c(c1SCc1ccc(C(F)(F)F)cc1)c(=O)n(C)c(=O)n2C` is less than 60%?
criterion met

Field: next compound
Could you please tell me whether survival recorded for Cc1cccc(NC(=O)c2cc3c([nH]c2=O)CC(c2ccccc2)CC3=O)c1 (stereo not given) is less than 60%?
criterion met
